test system: TK-10 renal; assay: NCI-60 one-dose screen, 48 h (100 = growth as untreated, 0 = no growth, -100 = all killed); conditions: 10 µM unless noted
Compounds without any hit were thinned out: in the full panel of roughly 83,000, 20% have a hit.
Recorded growth values for a group of molecules are listed next.

{"Molecule": "O=C(COc1cc(O)c2c(=O)cc(-c3ccccc3)oc2c1)Nc1ccccc1", "Target under test": "TK-10 renal", "Units text": "%", "growth": 103}
{"Molecule": "O=C(Nc1ccc(Cl)cc1F)c1cc(F)ccc1O", "Target under test": "TK-10 renal", "Units text": "%", "growth": 14}
{"Molecule": "C=C[C@@H]1CCC/C=C/[C@@H]2C[C@H](O)C[C@H]2[C@H](O)/C=C/C(=O)O1", "Target under test": "TK-10 renal", "Units text": "%", "growth": 15.5}
{"Molecule": "CN1C(=O)N(C)C2C1NN=c1s/c(=C\\c3ccc(Cl)cc3Cl)c(=O)n12 (stereo not given)", "Target under test": "TK-10 renal", "Units text": "%", "growth": 83.7}
{"Molecule": "N#Cc1c(N)nc2c(c1N)C(c1ccc(F)cc1)c1ccc(N)cc1O2 (stereo not given)", "Target under test": "TK-10 renal", "Units text": "%", "growth": 116}
{"Molecule": "CN(CCc1ccccc1)C(=S)N(C(=O)c1ccc([N+](=O)[O-])cc1)c1ccc(Cl)cc1", "Target under test": "TK-10 renal", "Units text": "%", "growth": 76}
{"Molecule": "CCCCc1ccc(NS(=O)(=O)c2cc3c4c(c2)CCN4C(=O)CC3)cc1", "Target under test": "TK-10 renal", "Units text": "%", "growth": 33.8}
{"Molecule": "Nc1nc(-c2ccccc2Br)nn1-c1nc2ccccc2s1", "Target under test": "TK-10 renal", "Units text": "%", "growth": 118}
{"Molecule": "COCCN(C(=O)Cc1cccs1)C(C(=O)NCc1ccc(OC)cc1)c1ccc(C(C)C)cc1 (stereo not given)", "Target under test": "TK-10 renal", "Units text": "%", "growth": 115}
{"Molecule": "NC1C(N)C(N)C1N (stereo not given)", "Target under test": "TK-10 renal", "Units text": "%", "growth": 99.1}

----------
tested on: CCRF-CEM leukemia; test: NCI-60 one-dose screen, 48 h; conditions: 10 µM unless noted
Compounds without any hit were thinned out: in the full panel of roughly 83,000, 20% have a hit. Active and inactive are the calls of the source. How the source made its calls: active means growth percent below 10; inactive means the rest.
Classes used: 1 (active), -1 (inactive)

{"Molecule": "COc1cc(C#N)cc2[nH]c(=O)oc12", "Group": -1}
{"Molecule": "CCCC(c1nnnn1C1CCCCC1)N1CCN(C(=O)c2ccco2)CC1 (stereo not given)", "Group": -1}
{"Molecule": "COc1ccc(/C=C/C(=O)c2c(C)nc3ccccc3c2/C=C/c2ccccc2)c(OC)c1", "Group": -1}
{"Molecule": "CCOc1cccc(/C=N\\Nc2nc(=O)cc(C(=O)OC)s2)c1O", "Group": -1}
{"Molecule": "O=C(Nc1ccc(N2CCNCC2)cc1)c1[nH]ncc1Nc1ncnc2sc3c(c12)CCC3", "Group": 1}
{"Molecule": "C=C1C(=O)O[C@H]2[C@H]1CC/C(COC(=O)/C=C\\C(=O)O)=C\\CC[C@@]1(C)O[C@@H]21", "Group": -1}
{"Molecule": "O=C(Nc1ccc(Cl)cc1F)c1cc(Br)ccc1O", "Group": -1}
{"Molecule": "COc1ccccc1N1CCN(C(CNS(=O)(=O)c2ccc(Cl)cc2)c2cccnc2)CC1 (stereo not given)", "Group": -1}
{"Molecule": "CCOC(=O)c1sc(-c2ccc(OS(=O)(=O)C[C@]34CCC(CC3=O)C4(C)C)c(C=O)c2)nc1C", "Group": -1}
{"Molecule": "Nc1ccc(-c2nn3c(CCC(=O)c4nc5ncccc5[nH]4)nnc3s2)c(O)c1", "Group": -1}
